Overview of recorded pKd for various binders
Biological target: T1, human monomeric EGFR (EGFR.mmh) (human, UniProt P00533 25-647)
T1 construct: Soluble monomeric EGFR construct
Experiment: SPR 37C, mAb captured by anti-human Fc, EGFR.mmh analyte
pKd is defined as minus the log10 of a concentration measured in mol/L.

Endpoint output: pKd of H1H153P (antibody, human IgG1, V domains shown, Human IgG1 Fc (H1H)) VH: QVQLVESGGGVVQPGKSLRLSCAASGFTFSIYGMNWVRQAPGKGLDWVAVISDDGSNKDYVDSVRGRFTISRDNSKNTLYLQMNSLSAEDTAVYYCAKDRITGTHYYGLDVWGQGTTVTVSS VL: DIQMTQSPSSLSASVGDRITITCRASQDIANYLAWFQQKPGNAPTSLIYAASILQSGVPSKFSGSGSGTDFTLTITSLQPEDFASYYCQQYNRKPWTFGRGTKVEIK . Value?
8.51

Note: attention shifts to another entry.
For the binder shown here, H1H143P (antibody, human IgG1, V domains shown, Human IgG1 Fc (H1H)) VH: QVQLQESGPGLVMPSQTLSLTCTVSGGSINSGDYYWNWIRQHPGKGLEWIGYIYYSEISYHNPSLKSRVTTSIDTSTNQFSLKLSSVTAADTAVYYCARDRVELRAFDIWGQGTMVTVSS VL: DIQMTQSPSSLSASVGDRVTITCQASQDISNYLNWYQQKPGKAPKLLIYDASNLETGVPSRFSGSGSGTDFTFTISSLQPEDIATYYCQHYDSLPLTFGQGTRLEIK , give the reported pKd.
8.24

Values were extracted from patent US20180036405A1.
